target_of_assay: T1, Biotin-huCGRPaSA (human, not fully specified; biotin (position not given))
T1 construct: exact construct ('aSA') not explained; also called Biotin CGRPaSA; full-length (1-37) CGRP
T1 peptide: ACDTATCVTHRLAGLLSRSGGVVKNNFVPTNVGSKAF
measurement_description: ELISA, transfection supernatant, biotin-CGRP on streptavidin
Description: Streptavidin was diluted to 0.5 μg/mL by using PBS (Hyclone) and added into a plate at 100 μL/well. The plate was incubated in a thermostat incubator at 37° C. for 90 min and then washed. […] Finally, a 2 M hydrochloric acid solution was added at 100 μL/well to stop the reaction while avoiding bubbles, and the plates were read on a microplate reader within 10 min (the detection wavelength was 450 nm; the reference wavelength was 620 nm).
Items are presented alongside their recorded OD value.

binder	OD value
C97 (antibody, V domains shown, 2A2-HC + 1F5-LC1; chimeric, human constant regions) VH: EVQLQQSGPELVKPGASVKISCKASGYTFTDYNMHWVKQSHGKSLEWIGYVYPYNGGSAYNQKFKSKATLTVDTSSSIAYMDLHSLTSEDSAVYYCAREGLGGYWGQGTTLAVSS VL: DIVLTQSPASLAVSLGQRATISCKASQNIDFDGYAYMNWYQHKPGQPPRVLIYSVFNLESGIPARFSGSGSGTDFTLNIHPVEEEDAATYYCQQSHEVPYTFGGGTNLEIK	3.03 OD
C347 (antibody, V domains shown, 3H10-HC + 1A2-LC2; chimeric, human constant regions) VH: EVQLQQSGPELVQPGASVKISCKASGYTFTDYNMHWVKQSHGESLEWIGYIYPYNGHTVYNQKFRNKATMTVDSSSSTAYMDLRSLTSEDSAVYYCAKEGLGGYWGQGTTLTVSS VL: DIVLTQSPASLAVSLGQRATISCKASQNIDYDGYAYLNWYQQKPGQPPKVLIYSVFNLESGIPARFSGSGSGTDFTLNIHPVEEEDAATYYCQQSNEFPYTFGGGTKLEVK	3.01 OD
